From: PubChem BioAssay (NCI)

# System: MOLT-4 leukemia
# assay_info: NCI-60 one-dose screen, 48 h (100 = growth as untreated, 0 = no growth, -100 = all killed)
# condition_parameters: 10 µM unless noted
Compounds without any hit were thinned out: in the full panel of roughly 83,000, 20% have a hit. The source made the active and inactive calls. The calls were made as follows: active = growth percent below 10; inactive = the rest.

- smiles_representation: "O=C(COc1cccc(/C=C2\\Oc3ccccc3C2=O)c1)c1ccc([N+](=O)[O-])cc1"
  growth: "72% (inactive)"
- smiles_representation: "C=C(C)[C@@H]1CC[C@]2(C)[C@H](C(=O)C=C3[C@@H]4C[C@](C)(C(=O)N5CCN(C)CC5)CC[C@]4(C)CC[C@]32C)[C@@]1(C)CCC#N"
  growth: "-45.9% [100 µM] (active)"
- smiles_representation: "COc1ccc(/C=C(/C2=NCCN2)n2ccc3ccccc32)cc1"
  growth: "93.2% (inactive)"
- smiles_representation: "O=C(O)CSCc1nnc2n(Cc3ccccc3)c(=O)c3c4c(sc3n12)CCCC4"
  growth: "71.8% (inactive)"
- smiles_representation: "CCCCCCNC(=O)Nc1ncnc2c1ncn2-c1ccccc1"
  growth: "102% (inactive)"
- smiles_representation: "Clc1ccccc1/C=N\\Nc1ccccn1"
  growth: "83.5% (inactive)"
- smiles_representation: "C=C(CN=[N+]=[N-])[C@@H]1CC[C@]2(C)[C@H](CC[C@@H]3[C@H]4[C@H]5OC(=O)[C@@]4(CCC5(C)C)CC[C@]32C)[C@@]1(C)CCC#N"
  growth: "58% [100 µM] (inactive)"
- smiles_representation: "COc1cc2c(O)n(CCCN3CCOCC3)c3c4cnc5cccc(c(=O)c3c2cc1OC)c54"
  growth: "11.8% (inactive)"
- smiles_representation: "O=S(=O)(NCCNc1nccc(-c2c(-c3cccc(F)c3)nc3occn23)n1)c1ccc(C(F)(F)F)cc1"
  growth: "52.9% (inactive)"
